tested on: MS2 coat protein; assay: apparent KD of MS2 coat protein; designed switch direction (-1 OFF switch, 1 ON switch): 1; higher = weaker reporter binding; conditions: Eterna round: R95; input ligand: FMN 200 uM
quantity name: apparent KD of MS2 coat protein (nM)
Give bare numbers, in nM.

# annotated cases, reported apparent KD of MS2 coat protein shown
sequence input	apparent KD of MS2 coat protein / nM
GCCCAGAGUAUAUGGGUACAAGCUUUUUGACAUGAGGAUCACCCAUGUACUCGUCUUAUGUGCAGUCCGUAGACUGC [JL-shm-2.19 Brourd mod] (puzzle: Sensor for hsa-mir-208a)	18.2
AUAAGGCAAGCUUUUUUCUCGUAGUGUAAACAUGAGGAUCACCCAUGUGCCCACCCUGGAUCUUUGGAUCGCAGAAC [Sobiisarre] (puzzle: Sensor for hsa-mir-208a)	20.3
GGUCCAGCCUGAGCUGGACAAAAGCAUGUACAUGAGGAUCACCCAUGUCAUGUACAAGCUUUUUGCUCGUCAUAAAG [Mat - hsa-mir-208a - 97] (puzzle: Sensor for hsa-mir-208a)	228
UGCUAUUGUAUAUUGGUGCAAGCUUUUUGACAUGAGGAUCACCCAUGUACUCGUCUUUAGCGCAGUCCGUAGACUGC (puzzle: Sensor for hsa-mir-208a)	52.4
UUUGGGUGGCUGGAGGAUAUUCUUGUGGUUACAUGAGGAUCACCCAUGUGCCGCGCGGUGCGCGAGGAGAAGGCUGGCGGCCGUU (puzzle: Same State 2)	21.7
UCUUGGUUUUUGCUCGUUUUUUGUGUUGAACAUGAGGAUCACCCAUGUAUUGUACGGUCCGAUUUAAUGAUGGUCCA [JMF 39] (puzzle: Sensor for hsa-mir-208a)	32.4
AGUCCAGCCUGAGCUGGACAAAAGCAUGUACAUGAGGAUCACCCAUGUCAUGUACAAGCUUUUUGCUCAAAAUAAUA [Mat - hsa-mir-208a - Mod of JL - D33] (puzzle: Sensor for hsa-mir-208a)	957
GGUCCAGCUUUUGCUGGUCCUUCGCUUGCACAUGAGGAUCACCCAUGUCGUGUACAUGCUUGGUGCCCGUCUUUUUU [Photon Torp-16] (puzzle: Sensor for hsa-mir-208a)	137
GGCUAUCGCAUUCGAUAGCUUAAGCAUGUACAUGAGGAUCACCCAUGUCAUGUACAGGCUUUUUGCUCGUACUUAUA (puzzle: Sensor for hsa-mir-208a)	286
CGUGGGUGGCUGGAGGAUAUUCGAGUGGUAACAUGAGGAUCACCCAUGUGUCGCGCGGUACACGAGGAGAAGGCUGGCGGCCGGC (puzzle: Same State 2)	34.6

Query block: For the sequence shown here, AAGAAGACGGACAAGGAUAUGUCAAAGGAAACAUGAGGAUCACCCAUGUGGAGAUUGGAAAAGAAACAGAAGGUGUACGGAGAGA [JR_SS2_Sub007] (puzzle: Same State 2) , give the reported apparent KD of MS2 coat protein.
Result block: 10.6

----------
tested on: MS2 coat protein; test: apparent KD of MS2 coat protein; designed switch direction (-1 OFF switch, 1 ON switch): -1; higher = weaker reporter binding; conditions: Eterna round: R95; input ligand: FMN 200 uM
Assignment: determine reported apparent KD of MS2 coat protein for the given sequences.
One number for each entry, in nM.

sequence input	apparent KD of MS2 coat protein, nM
GGUCAAGGACAGAUCCGCGCUGCCCUUGACCGCUCAUUUACAUGAGGAUCACCCAUGUUUUUUGCUUGUCUUGUUAC [Erbete] (puzzle: Sensor v3, turn-off variant 2)	16.2
AUGAGGUUAGGAUAUACAUGAGGAUCACCCAUGUUGAAAGGUUAGAUAGGCGAAGCUGGUAGAAGGAACGGAGC [JR_Exclu3_Sub055] (puzzle: Exclusion 3)	27.9
UUUAAUUUUUUUUUUUUACAAGCUUUUUGCUCGUCUUAUACAUGAGGAUCACCCAUGUAAAUGGGAGAUAAAUUAUC [JMF 17] (puzzle: Sensor v3, turn-off variant 2)	95.9
CAGUACUGCAAGCUAUGGGACAUGAGGAUCACCCAUGUUCGUCUUAUUGAUCUAGGUACGCUGACGUACCUAGAUCU [JL-sv1-2.20 Brourd mod] (puzzle: Sensor v3, turn-off variant 1)	16.3
AAAUAAUAGAUAAAAUAAUACAUGAGGAUCACCCAUGUGGGAUGCUGAGGGUGAUACAAGCUUUUUGCUCGUCUUAU (puzzle: Sensor v3, turn-off variant 1)	212

Please supply apparent KD of MS2 coat protein for each of the following items, keeping them in order.
1. CUCCUCAUGGCGCCUAAACACAUGAGGAUCACCCAUGUACAGGCUUUUCGCCGUCUUAUAAUAAAACCGAGGAUGCG [Soislebice] (puzzle: Sensor v3, turn-off variant 1)
2. CGCGACUCAGGAUAUACAUGAGGAUCACCCAUGUGGAACUACUGGGUCGAUAAAAGGUGUAGAAGGGAGGAAAU [Veveesla] (puzzle: Exclusion 3)
3. GAAGGUGAGCAGGAUAUCCGCGCACGAAUAUAAGGAGAAGGGCUUACAUGAGGAUCACCCAUGUAAGGUGGUAG [Rexequar] (puzzle: Exclusion 6)
4. UUUAAUUUUUUUUUUUUACAAGCUUUUUGCUCGUCUUAUACAUGAGGAUCACCCAUGUAGAUGGGAGAUAAAUUAUC [JMF 20] (puzzle: Sensor v3, turn-off variant 2)
5. UACCUAAUGGGUGUUUCUCACAUGAGGAUCACCCAUGUCACUAGCUUUUUGCUCAUCUUAUCGAAACACCCUUAGUC [Birerage] (puzzle: Sensor v3, turn-off variant 1)
6. AGUAGUAGUAUCCGAUCCUACAUGAGGAUCACCCAUGUAGCUAGACGUGCACGCGAUGCUCGUCAGACUGCCAGAUG [salish99_TOv1_r3_049] (puzzle: Sensor v3, turn-off variant 1)
7. AUGAGCAGACGGAGAUCCAACAUGAGGAUCACCCAUGUCUCAAAAGCUUUUUGCUCAUCUUAUCGUACCUUGGUGCU [Mat - Sensor v3 - turn-off var 1 - JL Mod - D13] (puzzle: Sensor v3, turn-off variant 1)

Result block:
[45.6, 14.3, 15.8, 33.8, 21.3, 95.4, 162]

Please supply apparent KD of MS2 coat protein for each of the following items, keeping them in order.
1. GGGUGUCCAGUGAGGAUAUCCAGCGCUCAGGCGCAGGAGAAGGCACAUGAGGAUCACCCAUGUAGCUGAAGAAA [Geenra] (puzzle: Brourd's mod of Exclusion 4)
2. UUUAAUUUUUUUUUUUUACAAGCUUUUUGCUCGUCUUAUACAUGAGGAUCACCCAUGUGAAUGAGGGAUAAAUUAUC [JMF 39] (puzzle: Sensor v3, turn-off variant 2)
3. CAGUACUGCAGGCUUCGGGACAUGAGGAUCACCCAUGUUCGUCUUAUUGAUCUAGGUACGCUGACGUACCUAGAUCU [JL-sv1-2.16 Brourd mod] (puzzle: Sensor v3, turn-off variant 1)
4. GGUCAAGAACAGCUCCGCGCUGUCCUUGACCGCUCAUUUACAUGAGGAUCACCCAUGUUUUUUGCUUGUCUUGUUUC [Estetexequ] (puzzle: Sensor v3, turn-off variant 2)

Result block:
1: 116; 2: 13.5; 3: 16.7; 4: 21

Please supply apparent KD of MS2 coat protein for each of the following items, keeping them in order.
1. GGUCUGCGAGGAUAUACAUGAGGAUCACCCAUGUGAGAGAUACUAGUGAGGUCGAUUGGUAGAAGGCGCGGACG [JL-ex3-2.03 salish99 mod] (puzzle: Exclusion 3)
2. GUGGUGGGUUUUCCGAGUGACAUGAGGAUCACCCAUGUGUUAGUUUGAGGUAUCAAGCGAAUGGCUCGUCUUAUGUG [JR_SV3TOV1_Sub046] (puzzle: Sensor v3, turn-off variant 1)
3. CGGAGCAGAGGGAGAUCCAACAUGAGGAUCACCCAUGUCUCACAAGCUUUUUGCUCAUCUUAUUGUACCUUGGUGCU [JL ViennaUCT Edcesobi mod 6] (puzzle: Sensor v3, turn-off variant 1)
4. AGUACUAACACGAAAGUGUUAGUACAAUAAGCUAGUGGAACAUGAGGAUCACCCAUGUCCUCAUUAGCUCGUCUUAA [Mat - Sensor v3 - Turn-off var 2 - D34] (puzzle: Sensor v3, turn-off variant 2)

Result block:
1: 13.1; 2: 140; 3: 40.5; 4: 14.2

This collection of values is drawn from the supplement of paper PMC9170038.
